# tested.on: T1, human IL1RAP (hu-IL1RAP) on human cells (human, UniProt Q9NPH3 21-570)
# T1 sequence: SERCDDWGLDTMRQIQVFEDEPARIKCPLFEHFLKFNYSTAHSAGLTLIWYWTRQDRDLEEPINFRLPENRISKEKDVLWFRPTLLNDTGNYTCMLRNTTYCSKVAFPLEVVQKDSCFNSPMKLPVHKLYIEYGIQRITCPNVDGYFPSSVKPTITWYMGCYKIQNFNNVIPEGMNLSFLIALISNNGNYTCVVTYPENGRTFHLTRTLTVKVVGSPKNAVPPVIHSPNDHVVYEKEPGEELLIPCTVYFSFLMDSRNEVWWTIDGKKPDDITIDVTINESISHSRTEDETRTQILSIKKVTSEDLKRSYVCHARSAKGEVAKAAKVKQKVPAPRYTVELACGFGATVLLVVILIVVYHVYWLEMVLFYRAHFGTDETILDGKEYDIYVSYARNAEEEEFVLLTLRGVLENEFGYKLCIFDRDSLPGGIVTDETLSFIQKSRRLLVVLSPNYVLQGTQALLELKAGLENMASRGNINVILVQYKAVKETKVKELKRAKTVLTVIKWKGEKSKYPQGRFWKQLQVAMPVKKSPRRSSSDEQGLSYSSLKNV
# method.notes: cell-based or functional assay
assay.metric: HEK-Blue, IL-33, % inhibition at 100 nM (%)

binder="9D5 (purified mAb from hybridoma 9D5) (antibody, V domains shown, Mouse hybridoma mAb) VH: QVQLQQSGAELARPGASVKFSCKASGYTFTSYWMQWVKQRPGQGLEWIGTIYPGDGNTRYTQKFKGKATLTADKSSSTAYMQLSGLASEDSAVYYCARGYFGNLVFDVWGAGTTVTVSS VL: DIKMTQSPSSMYASLGERVTITCKASQDINTYLSWFLQKPGKSPKTLIYRADRLVDGVPSRFSGGGSGQDYSLTISSLEYEDLGIYYCLQYDEFPYTFGSGTKLEIK" value_observed=46
